# Assay summary: amyloid nucleation score (Sup35N fusion, yeast selection) (log enrichment); library NNK1; higher = more nucleation; inactive = no reads after selection;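 note: zero at mode of non-aggregating sequences after 7 days selection at 30°C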
So I've got a bunch of sequences here, and I need their amyloid nucleation score values.
Enter a number only.

Request: Looking for the measured amyloid nucleation score of QELICMGSEYVFPNWTSFRA , can you help?
Result: -0.412

Request: Looking for the measured amyloid nucleation score of RGNVCCTMIC , can you help?
Result: 6.09

Request: Looking for the measured amyloid nucleation score of TGNYDYVSFNQRKLHGCFNQ , can you help?
Result: -0.652

Request: Looking for the measured amyloid nucleation score of NKYVVETDH , can you help?
Result: -0.604

Request: Looking for the measured amyloid nucleation score of CGAELRIGGCSGPGGMFQTR , can you help?
Result: 0.031

Request: Looking for the measured amyloid nucleation score of LDDAWRVWMHSL , can you help?
Result: 0.981

====

# Assay summary: amyloid nucleation score (Sup35N fusion, yeast selection) (log enrichment); library NNK2; higher = more nucleation; inactive = no reads after selection
Outcome: Met for amyloid nucleation score of at least 0.5; Not met for anything lower.

Request: Please indicate if the recorded amyloid nucleation score for DKLVRWHLGMLIGGRGSCLF meets or exceeds 0.5.
Result: Not met

Request: Please indicate if the recorded amyloid nucleation score for SARHSRDR meets or exceeds 0.5.
Result: Met

Request: Please indicate if the recorded amyloid nucleation score for IKGTQSVRDTVSLVVIKDVW meets or exceeds 0.5.
Result: Met

Request: Please indicate if the recorded amyloid nucleation score for MSGICPDQSSLYIEDTSIWL meets or exceeds 0.5.
Result: Met

Request: Please indicate if the recorded amyloid nucleation score for FYSVHSCLYVLIHRVQHACC meets or exceeds 0.5.
Result: Not met

Request: Please indicate if the recorded amyloid nucleation score for PGSAIRVVSMRLWGRRRSAG meets or exceeds 0.5.
Result: Not met

Request: Please indicate if the recorded amyloid nucleation score for TRDCHYMVGRLMIEWFQSVW meets or exceeds 0.5.
Result: Not met

Request: Please indicate if the recorded amyloid nucleation score for ACCFESSGIQLEVRGGGAWG meets or exceeds 0.5.
Result: Met

Request: Please indicate if the recorded amyloid nucleation score for TYLVQWMCCRWMPMHFRIMT meets or exceeds 0.5.
Result: Not met

Request: Please indicate if the recorded amyloid nucleation score for SSTVCCHALVCSVSNFGFTV meets or exceeds 0.5.
Result: Met

Request: Please indicate if the recorded amyloid nucleation score for CYMTFYVMLTLDRTQSHSGH meets or exceeds 0.5.
Result: Met

Request: Please indicate if the recorded amyloid nucleation score for PTMFNFKIYQIVRVGLPIHL meets or exceeds 0.5.
Result: Not met

Request: Please indicate if the recorded amyloid nucleation score for GSICAHGECF meets or exceeds 0.5.
Result: Met

Request: Please indicate if the recorded amyloid nucleation score for DTVISCLGVG meets or exceeds 0.5.
Result: Not met

====

# Assay summary: amyloid nucleation score (Sup35N fusion, yeast selection) (log enrichment); library NNK1; higher = more nucleation; inactive = no reads after selection
Measured metric: amyloid nucleation score

- Record sequence: "TRTRLEHNSVRKFWEL"
  Measured metric: "amyloid nucleation score"
  Result: "inactive"
- Record sequence: "NLSQSLVHRVSSVEYTLRLL"
  Measured metric: "amyloid nucleation score"
  Result: "inactive"
- Record sequence: "PLYKAVLTDK"
  Measured metric: "amyloid nucleation score"
  Result: "inactive"
